Catalogue of compounds with associated inhibition
Biological target: Serine/threonine-protein kinase 10 (Homo sapiens) (UniProt O94804);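 further: mean percent inhibition of LOK (STK10)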
Sequence (O94804 whole entry, looked up): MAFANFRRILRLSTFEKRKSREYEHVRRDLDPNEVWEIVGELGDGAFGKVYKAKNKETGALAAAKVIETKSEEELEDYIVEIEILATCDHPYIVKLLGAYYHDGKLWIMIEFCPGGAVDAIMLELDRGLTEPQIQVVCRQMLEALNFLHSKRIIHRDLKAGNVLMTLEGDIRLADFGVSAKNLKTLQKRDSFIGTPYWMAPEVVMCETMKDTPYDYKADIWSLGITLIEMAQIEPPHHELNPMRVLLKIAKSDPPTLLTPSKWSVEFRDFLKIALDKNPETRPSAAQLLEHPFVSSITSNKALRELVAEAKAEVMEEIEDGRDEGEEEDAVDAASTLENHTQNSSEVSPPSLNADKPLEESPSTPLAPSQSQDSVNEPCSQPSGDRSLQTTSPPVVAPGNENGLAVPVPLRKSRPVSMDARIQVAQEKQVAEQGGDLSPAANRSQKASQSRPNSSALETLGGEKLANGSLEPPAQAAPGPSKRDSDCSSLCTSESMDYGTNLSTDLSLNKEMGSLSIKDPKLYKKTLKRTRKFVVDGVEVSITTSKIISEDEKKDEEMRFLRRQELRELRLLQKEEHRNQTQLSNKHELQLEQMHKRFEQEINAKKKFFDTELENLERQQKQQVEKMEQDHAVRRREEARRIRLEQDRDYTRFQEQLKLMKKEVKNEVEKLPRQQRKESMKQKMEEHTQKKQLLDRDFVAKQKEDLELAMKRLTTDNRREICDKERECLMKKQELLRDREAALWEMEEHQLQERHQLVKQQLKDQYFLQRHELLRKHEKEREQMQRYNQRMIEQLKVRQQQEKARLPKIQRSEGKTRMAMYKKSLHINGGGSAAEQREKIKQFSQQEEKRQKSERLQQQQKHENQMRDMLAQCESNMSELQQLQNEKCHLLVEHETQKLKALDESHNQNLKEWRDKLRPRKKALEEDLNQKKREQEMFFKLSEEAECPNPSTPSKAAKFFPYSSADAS
Conditions: at 0.1 µM

In the examples that follow, each entry is paired with its recorded inhibition.
COMPOUND	ASSAYED SYSTEM	METRIC	RESULT
COC(=O)Nc1nc2cc(Oc3cccc(NC(=O)Nc4cc(C(F)(F)F)ccc4F)c3)ccc2[nH]1	Serine/threonine-protein kinase 10 (Homo sapiens) (UniProt O94804)	inhibition	4.04%
CCn1c(-c2nonc2N)nc2ccncc21	Serine/threonine-protein kinase 10 (Homo sapiens) (UniProt O94804)	inhibition	2.02%
COc1cc(C=NNc2ncnc3c2cnn3-c2ccccc2)ccc1O	Serine/threonine-protein kinase 10 (Homo sapiens) (UniProt O94804)	inhibition	5.58%
CC(C)=Cc1cccc2c1/C(=N/Nc1ccc(S(N)(=O)=O)cc1)C(=O)N2	Serine/threonine-protein kinase 10 (Homo sapiens) (UniProt O94804)	inhibition	1.18%
CN(C)c1cc2c(Nc3ccc4nc(Cc5ccccc5)[nH]c4c3)ncnc2cn1	Serine/threonine-protein kinase 10 (Homo sapiens) (UniProt O94804)	inhibition	6.78%

Tell me inhibition reported for CC1=C(C(=O)Nc2ccc3[nH]ncc3c2)C(c2ccc(F)cc2)NC(=O)N1 (configuration not stated)
1.26%

Tell me inhibition reported for `COc1cccc(-n2ncc3c(N/N=C/c4cccc(F)c4)ncnc32)c1`
3.91%

* * *

Test system: Epidermal growth factor receptor (Homo sapiens), P00533 [L858R]
Sequence (P00533 whole entry L858R): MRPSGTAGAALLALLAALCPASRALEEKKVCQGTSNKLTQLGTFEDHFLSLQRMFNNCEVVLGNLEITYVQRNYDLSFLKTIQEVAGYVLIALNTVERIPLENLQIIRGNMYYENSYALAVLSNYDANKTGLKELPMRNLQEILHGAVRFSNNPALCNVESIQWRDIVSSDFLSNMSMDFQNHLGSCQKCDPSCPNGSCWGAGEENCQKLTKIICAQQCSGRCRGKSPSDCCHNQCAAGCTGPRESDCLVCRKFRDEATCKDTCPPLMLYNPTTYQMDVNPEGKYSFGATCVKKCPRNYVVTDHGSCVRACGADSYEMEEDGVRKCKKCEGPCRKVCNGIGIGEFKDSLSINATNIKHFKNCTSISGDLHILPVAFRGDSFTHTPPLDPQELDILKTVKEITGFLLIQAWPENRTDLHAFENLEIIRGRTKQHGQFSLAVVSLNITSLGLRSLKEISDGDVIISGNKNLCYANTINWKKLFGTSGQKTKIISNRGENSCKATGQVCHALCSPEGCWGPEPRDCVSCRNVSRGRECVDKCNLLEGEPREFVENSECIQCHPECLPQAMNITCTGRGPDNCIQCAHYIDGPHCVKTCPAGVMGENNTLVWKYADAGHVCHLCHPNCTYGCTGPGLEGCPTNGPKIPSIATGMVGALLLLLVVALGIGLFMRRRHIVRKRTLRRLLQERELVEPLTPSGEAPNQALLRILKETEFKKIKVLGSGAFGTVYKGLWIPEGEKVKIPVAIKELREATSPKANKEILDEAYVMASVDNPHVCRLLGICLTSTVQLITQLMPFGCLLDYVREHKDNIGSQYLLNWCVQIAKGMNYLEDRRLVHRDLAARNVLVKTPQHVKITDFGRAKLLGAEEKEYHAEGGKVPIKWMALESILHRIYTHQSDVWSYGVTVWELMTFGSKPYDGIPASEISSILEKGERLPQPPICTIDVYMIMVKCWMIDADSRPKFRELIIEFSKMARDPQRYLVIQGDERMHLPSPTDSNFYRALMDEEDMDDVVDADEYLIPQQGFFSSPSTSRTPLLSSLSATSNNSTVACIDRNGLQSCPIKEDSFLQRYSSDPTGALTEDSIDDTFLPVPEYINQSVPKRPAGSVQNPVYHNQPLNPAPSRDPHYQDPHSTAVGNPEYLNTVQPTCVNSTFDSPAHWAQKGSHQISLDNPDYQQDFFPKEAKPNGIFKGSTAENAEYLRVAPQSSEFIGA
Conditions: at 0.1 µM
METRIC: inhibition (%)
The reply should contain only the number, in %.

COMPOUND	ASSAYED SYSTEM	inhibition (%)
COc1cc(C)c(NC(=O)CN(C)C)cc1Nc1nc(Nc2cccc(F)c2C(N)=O)c2cc[nH]c2n1	Epidermal growth factor receptor (Homo sapiens), P00533 [L858R]	1.75

Tell me inhibition reported for `COc1cccc(-n2ncc3c(N/N=C/c4cccc(F)c4)ncnc32)c1`
6.62

Tell me inhibition reported for `Fc1cccc(COc2ccc(Nc3ncnc4cc(-c5ccc[nH]5)sc34)cc2Cl)c1`
32.5

Tell me inhibition reported for `COc1ccc(-c2ccncc2)cc1C(N)=O`
5.16

Tell me inhibition reported for `CCn1c(-c2nonc2N)nc2cncc(C(=O)N3CCNCC3)c21`
3.95

Tell me inhibition reported for `Nc1ncnc2occ(-c3ccc(NC(=O)Nc4cc(C(F)(F)F)cc(C(F)(F)F)c4)cc3)c12`
1.34

Tell me inhibition reported for `Cc1cccc(-c2n[nH]cc2-c2ccc3ncccc3n2)n1`
-0.08

Tell me inhibition reported for `COc1ccc(-c2coc3ncnc(N)c23)cc1`
1.46

Tell me inhibition reported for CC1=C(C(=O)Nc2ccc3[nH]ncc3c2)C(c2ccc3ccccc3c2)CC(=O)N1 (stereo unspecified)
3.81

Tell me inhibition reported for `COc1ccc(-c2nn3ncccc3c2-c2ccnc(Nc3ccc(Cl)c(C(F)(F)F)c3)n2)cc1`
1.63

Tell me inhibition reported for `CCn1c(-c2nonc2N)nc2c(C#CC(C)(C)O)nc(CN3CCCC3)cc21`
-0.22

Tell me inhibition reported for `O=C1NC(=O)C(c2cccc(Cl)c2)=C1Nc1ccc(O)c(Cl)c1`
-2.01

Tell me inhibition reported for `Nc1ncnc2occ(-c3ccc(NC(=O)Nc4cccc(C(F)(F)F)c4)cc3)c12`
3.92

Tell me inhibition reported for `CN1CCC(C(=O)Nc2n[nH]c3nnc(-c4ccccc4)cc23)CC1`
1.7

Tell me inhibition reported for `CCCN1CCC=C(c2ccc(Nc3nc(Nc4ccccc4C(N)=O)c4cc[nH]c4n3)c(C)c2)C1`
0.06

Tell me inhibition reported for `O=C(Nc1n[nH]c2nc(-c3ccco3)c(Br)cc12)C1CC1`
3.62

All figures here come from ChEMBL document CHEMBL1961873.
